target_desc: T1, human CRH receptor type 2 (human, UniProt Q13324 1-411)
T1 sequence (looked up): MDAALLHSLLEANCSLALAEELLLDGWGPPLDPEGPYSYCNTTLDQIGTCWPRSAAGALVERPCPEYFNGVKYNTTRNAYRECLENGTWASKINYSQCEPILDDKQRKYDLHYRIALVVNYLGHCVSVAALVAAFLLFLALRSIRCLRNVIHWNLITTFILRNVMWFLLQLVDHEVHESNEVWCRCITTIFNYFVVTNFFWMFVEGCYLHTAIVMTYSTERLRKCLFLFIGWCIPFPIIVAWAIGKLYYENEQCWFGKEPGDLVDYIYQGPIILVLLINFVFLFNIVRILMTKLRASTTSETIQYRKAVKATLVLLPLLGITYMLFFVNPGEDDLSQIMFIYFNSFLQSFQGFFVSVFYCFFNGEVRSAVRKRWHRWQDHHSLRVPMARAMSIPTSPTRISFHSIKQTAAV
assay_explanation: cell-based or functional assay
Below, each entry is listed with its recorded Log DR against h-SCP, cAMP.

- TKFTLSLDVPTNICNLLFNIAKAKNLRAQAAANAHLMAQI (NES-PEG (about 20 kDa) on Cys 14; C-terminal amide) [Pegylated Cys-variant CRHR2 peptide agonist (NES linker, PEG about 20 kDa), SEQ ID NO: 68]: ~2.61 log10 ratio
- TKFTLSLDVPTNIMNLLFNIAKAKNLRAQAAANAHLCAQI (NES-PEG (about 20 kDa) on Cys 37; C-terminal amide) [Pegylated Cys-variant CRHR2 peptide agonist (NES linker, PEG about 20 kDa), SEQ ID NO: 91]: > 3.43 log10 ratio
- TKFTLSLDVCTNIMNLLFNIAKAKNLRAQAAANAHLMAQI (NES-PEG (about 20 kDa) on Cys 10; C-terminal amide) [Pegylated Cys-variant CRHR2 peptide agonist (NES linker, PEG about 20 kDa), SEQ ID NO: 64]: ~2.59 log10 ratio

Turning to the following binder.
Enquiry: So what's the measured Log DR against h-SCP, cAMP for this one? TKFTLCLDVPTNIMNLLFNIAKAKNLRAQAAANAHLMAQI (NES-PEG (about 20 kDa) on Cys 6; C-terminal amide) [Pegylated Cys-variant CRHR2 peptide agonist (NES linker, PEG about 20 kDa), SEQ ID NO: 60]
Return: > 3.22 log10 ratio
